# MEASUREMENT_TARGET: GBAS Protein NipSnap homolog 2 (Homo sapiens)
# Construct: isoTOP-ABPP experiments performed in cell lysates (in vitro); endogenous in cells; host or cells: MDA-MB-231 soluble lysate
# Sequence (O75323 24-286): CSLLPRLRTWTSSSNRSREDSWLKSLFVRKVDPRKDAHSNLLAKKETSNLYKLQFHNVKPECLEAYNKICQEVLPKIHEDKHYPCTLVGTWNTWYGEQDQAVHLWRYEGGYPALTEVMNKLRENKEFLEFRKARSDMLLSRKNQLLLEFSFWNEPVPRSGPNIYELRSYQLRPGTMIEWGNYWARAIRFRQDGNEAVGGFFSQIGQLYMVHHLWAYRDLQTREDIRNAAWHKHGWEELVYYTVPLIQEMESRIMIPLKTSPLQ
# TEST_SUMMARY: competitive isoTOP-ABPP
# Format: binding
# TEST_CONTEXT: O75323_K75; 50 uM, 231 sol, in vitro
REPORTED_PROPERTY: R value (DMSO/fragment) for probe 1 labeling

{"MOLECULE": "O=C(CCc1cn(-c2ccccc2)nc1-c1ccccc1)Oc1c(F)c(F)c(F)c(F)c1F [fragment 19]", "RECORDED_VALUE": 1.0}
{"MOLECULE": "COc1cc(CCC(=O)Oc2c(F)c(F)c(F)c(F)c2F)cc(OC)c1OC [fragment 23]", "RECORDED_VALUE": 1.1}

1 = Cn1cc(CC(=O)Oc2c(F)c(F)c(F)c(F)c2F)c2ccccc21 [fragment 22]
2 = O=C(Oc1c(F)c(F)c(F)c(F)c1F)c1cc(C(F)(F)F)cc(C(F)(F)F)c1 [fragment 21]
Query block: Return label of the item with the larger R value (DMSO/fragment) for probe 1 labeling. Candidates: 1 , 2 . Answer = label.
Result block: 1
(1: 1.5, 2: 0.8)

====

# MEASUREMENT_TARGET: ISOC2 Isochorismatase domain-containing protein 2, mitochondrial (Homo sapiens)
# Construct: isoTOP-ABPP experiments performed in cell lysates (in vitro); endogenous in cells; host or cells: soluble proteome of human cancer cell lines (MDA-MB-231; Ramos and Jurkat also prepared)
# Sequence (Q96AB3 whole entry, the tested form may be a part): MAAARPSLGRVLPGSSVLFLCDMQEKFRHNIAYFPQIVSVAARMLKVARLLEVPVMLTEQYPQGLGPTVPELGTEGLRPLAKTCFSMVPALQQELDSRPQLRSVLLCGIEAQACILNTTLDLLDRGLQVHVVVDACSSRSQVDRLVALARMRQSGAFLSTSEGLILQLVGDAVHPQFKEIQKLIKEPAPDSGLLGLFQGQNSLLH
# TEST_SUMMARY: competitive isoTOP-ABPP
# Format: binding
# Design: key: R = MS1 peak area ratio, DMSO (heavy) / compound-treated (light); capped at 20
# TEST_CONTEXT: 50 uM, 231 sol, in vitro
REPORTED_PROPERTY: isoTOP-ABPP reactivity ratio at lysine Q96AB3_K178
Just the number, please, no unit after it.

{"MOLECULE": "O=C(Oc1ccc([N+](=O)[O-])cc1[N+](=O)[O-])C(c1ccccc1)c1ccccc1 [fragment 30, 2,4-Dinitrophenyl 2,2-diphenylacetate]", "RECORDED_VALUE": 1.0}

Query block: What does the data say about its isoTOP-ABPP reactivity ratio at lysine Q96AB3_K178? Entry: `O=C(Oc1ccc([N+](=O)[O-])cc1[N+](=O)[O-])c1cc(C(F)(F)F)cc(C(F)(F)F)c1`
Result block: 2.1

Query block: What does the data say about its isoTOP-ABPP reactivity ratio at lysine Q96AB3_K178? Entry: `O=C(CN1C(=O)c2ccccc2C1=O)Oc1c(F)c(F)c(F)c(F)c1F`
Result block: 1.3

Query block: What does the data say about its isoTOP-ABPP reactivity ratio at lysine Q96AB3_K178? Entry: `Cn1cc(CC(=O)Oc2ccc([N+](=O)[O-])cc2[N+](=O)[O-])c2ccccc21`
Result block: 1.1
